experiment: THP-1 cell cytotoxicity, dose response, cytotoxicity control for non-replicating M. tuberculosis project (AID 489025); settings: THP-1 cell viability; series mostly up to 40 µM
Screen size: about 2,300 compounds; about 790 (34%) were called active. The list shows a part of the results. Results with a measured potency or affinity are listed apart.
outcome measure: outcome

{"compound": "C=CCn1c(O)c(C(C)=Nc2ccc(C(=O)OCC)cc2)c(=O)[nH]c1=O", "result": "inactive"}
{"compound": "CCc1cc(C(c2ccncc2)N2CCN(C)CC2)c(NC(=O)c2ccccc2)s1 (configuration not stated)", "result": "inactive"}
{"compound": "O=C(C1CCN(C2CC(=O)N(Cc3ccccc3)C2=O)CC1)N1CCCCCC1 (configuration not stated)", "result": "inactive"}
{"compound": "Cc1cccc(OCC(=O)NNC(=O)c2cc3ccccc3oc2=O)c1", "result": "inactive"}
{"compound": "CCC(C)n1nnc2c(=O)oc3ccccc3c21 (configuration not stated)", "result": "inactive"}
{"compound": "CC1COC(=O)C(NNc2ccc(Cl)c(Cl)c2)=N1 (configuration not stated)", "result": "inactive"}
{"compound": "CC1=CC2=NC(=O)/C(=C\\c3ccc(OC(=O)c4ccco4)cc3)C(=N)N2O1", "result": "inactive"}
{"compound": "CCOc1ccc(NC(=O)CCNC(=O)c2ccc(Br)cc2)cc1", "result": "inactive"}
{"compound": "O=C(CNC(=O)c1ccco1)OCc1ccc(C(=O)Oc2ccccc2)cc1", "result": "inactive"}
{"compound": "CC1(c2nnc(-c3ccccc3)o2)CC(c2ccc(Cl)cc2)=NO1 (configuration not stated)", "result": "inactive"}
{"compound": "Cc1cccc(NC(=O)c2cc3ccccc3o2)c1", "result": "inactive"}
{"compound": "CCn1c(O)c(C(=O)CC2NCCc3ccccc32)c(=O)n(CC)c1=S (configuration not stated)", "result": "inactive"}
{"compound": "Cc1ccc(C(=O)CCNc2ccc(Br)cc2)o1", "result": "inactive"}
{"compound": "Cc1cc(C(=O)N/N=C/C=C/c2ccccc2)c(C)o1", "result": "inactive"}
{"compound": "CC1=CC(=O)NP(=O)(Oc2ccc3ccccc3c2)N1 (configuration not stated)", "result": "inactive"}
{"compound": "COC(=O)COc1ccc2c(=O)c(Oc3ccccc3)c(C)oc2c1", "result": "inactive"}
{"compound": "O=C1CC(N2CCN(c3ccc(F)cc3)CC2)C(=O)N1Cc1ccccc1 (configuration not stated)", "result": "inactive"}
{"compound": "O=C(NNC(=O)c1ncc(Cl)c(Cl)c1Cl)c1ccc(F)cc1", "result": "inactive"}
{"compound": "CN(C)CCNc1c2c(c(C#N)c3nc4ccccc4n13)CCCC2", "result": "inactive"}
{"compound": "CCCN(Cc1nnc(-c2ccccc2Cl)o1)C(=O)c1cc([N+](=O)[O-])cc([N+](=O)[O-])c1", "result": "inactive"}
{"compound": "CCCC(C)C(=O)Nc1ccc(Cl)cn1 (configuration not stated)", "result": "inactive"}
{"compound": "COCCOC(=O)c1c(C)oc2ccc(OC(=O)c3ccco3)cc12", "result": "inactive"}
{"compound": "Oc1ccccc1-c1nnc(COc2ccccc2)o1", "result": "inactive"}
{"compound": "Cc1nonc1C(=O)N/N=C/c1ccc([N+](=O)[O-])o1", "result": "inactive"}
{"compound": "O=C(N/N=C/C=C/c1ccccc1)c1cccs1", "result": "inactive"}
{"compound": "Clc1ccccc1OCc1nnc(-c2ccccc2)o1", "result": "inactive"}
{"compound": "N/C(=N\\OC(=O)c1cccs1)c1ccccc1", "result": "inactive"}
{"compound": "COc1ccccc1N1CCN(C(=O)CCn2c(=O)[nH]c3ccsc3c2=O)CC1", "result": "inactive"}
{"compound": "COc1ccc(-c2[nH]ncc2CN2CCCCCCC2)c(OC)c1", "result": "inactive"}
{"compound": "Cc1ccccc1C(=O)NN1CC(C(=O)OCc2ccc(Cl)c(Cl)c2)CC1=O (configuration not stated)", "result": "inactive"}
{"compound": "O=C(CCSc1nnc(-c2ccccc2)o1)N1CCOCC1", "result": "inactive"}
{"compound": "Cc1c(Cl)cccc1NC(=O)C(=O)NNC(=O)c1ccccc1F", "result": "inactive"}
{"compound": "Cc1cc(O)c(-c2cc(O)c(C)cc2O)cc1O", "result": "inactive"}
{"compound": "O=C(OCC#CCSc1nc2ccccc2o1)c1ccco1", "result": "inactive"}
{"compound": "COc1ccc(NC(=O)c2cc3ccccc3o2)cc1", "result": "inactive"}
{"compound": "CN(C)/C=C1/C(=O)N(c2ccc([N+](=O)[O-])cc2)N=C1c1ccccc1", "result": "inactive"}
{"compound": "COC(=O)c1cc2c(ccc3ccccc32)oc1=O", "result": "inactive"}
{"compound": "CCc1nonc1NC(=O)COc1ccc(Cl)c(C)c1", "result": "inactive"}
{"compound": "COc1cccc(OCC(=O)NNC(=O)C(=O)Nc2cccc(C)c2)c1", "result": "inactive"}
{"compound": "COCCCNC(=O)COC(=O)c1ccc(-c2nc3ccccc3s2)s1", "result": "inactive"}
{"compound": "Cc1ccc(NC(=S)C2=C(O)c3sccc3N(C)S2(=O)=O)cc1", "result": "inactive"}
{"compound": "Cc1ccc(-c2noc(CCC(=O)Nc3cccc(C#N)c3)n2)cc1", "result": "inactive"}
{"compound": "CC(=O)Nc1ccc(NC(=O)[C@@H]2CCCC[C@@H]2C(=O)O)cc1", "result": "inactive"}
{"compound": "C=CCc1ccc2oc(C(=O)OCC)cc(=O)c2c1O", "result": "inactive"}
{"compound": "CCCCOC(=O)c1ccc(NC(=O)c2nn(C)cc2Br)cc1", "result": "inactive"}
{"compound": "O=C(COc1ccc(Cl)cc1)Nc1ccc(Cl)cn1", "result": "inactive"}
{"compound": "C/C(Cn1nnc([N+](=O)[O-])n1)=N\\NC(=O)c1ccncc1", "result": "inactive"}
